- Test system: LOX IMVI
- protocol-text: NCI tumour cell line growth inhibition, 48 h
The source made the active and inactive calls. Rule as the data show it: active = GI50 up to about 1.1 µM and inactive = higher.
experimental-endpoint: GI50

{"columns": ["molecule", "GI50"],
 "data": [
  ["CCN(CC)CCNC(=O)c1ccccc1NC(=O)C(=O)Nc1ccccc1C(=O)NCCN(CC)CC", "24.9 µM (inactive)"],
  ["Cn1cnc([N+](=O)[O-])c1Sc1nccn1-c1ccccc1", "16.8 µM (inactive)"],
  ["CCCc1nnc2sc(COc3cc(Cl)c(OCc4nn5c(CCC)nnc5s4)cc3Cl)nn12", "37.1 µM (inactive)"]
]}

GI50 recorded for this molecule, Cc1ccc([S+]([O-])CC(CF)OCn2cc(C)c(=O)[nH]c2=O)cc1 (centres undefined) , is > 100 µM (inactive)

GI50 recorded for this molecule, CO[C@@H]1C[C@H]2[C@@H]3CC[C@H]([C@@H](C)CO)[C@@]3(C)CC[C@@H]2[C@@]2(C)CC[C@H]3C[C@]312 , is 19.3 µM (inactive)

GI50 recorded for this molecule, CCOC(=O)Oc1cc2ccsc2c2c1c1ccccc1n2C(=O)OCC , is > 100 µM (inactive)

----------
- Test system: XF498
- protocol-text: NCI tumour cell line growth inhibition, 48 h
Active and inactive are the calls of the source. Rule as the data show it: active = GI50 up to about 1.1 µM and inactive = higher.
Measured GI50 of individual entries

Solved entries (count: 5):
{"columns": ["compound", "GI50"],
 "data": [
  ["O=C(Nc1nc2ccccc2n1Cc1ccc(Cl)cc1)NC12CC3CC(CC(C3)C1)C2", "13.4 µM (inactive)"],
  ["Cc1nc2ccccc2c(=O)n1Nc1ccc(C(=O)O)cc1", "> 100 µM (inactive)"],
  ["COc1ccc(CNc2cc(OC)cc(OC)c2)cc1", "63.5 µM (inactive)"],
  ["CC1=Nc2c(ccc3c2C(=O)c2ccccc2C3=O)NC(c2cccc3c2CCC3)C1 (stereo unspecified)", "> 100 µM (inactive)"],
  ["O=C(N/N=C/c1cccc(O)c1O)N/N=C/c1cccc(O)c1O", "19.1 µM (inactive)"]
]}

Record COc1ccc(N2C(=O)[C@H]3CC(C)c4c([nH]c5ccccc45)[C@H]3C2=O)cc1 (stereo partly specified) / XF498, GI50 recorded as 4.76 µM (inactive)

Record Cc1ccc(NC(=O)CC/C(CC(=O)c2ccc(Cl)cc2)=N\NC(=O)C(=O)NN)cc1C / XF498, GI50 recorded as > 100 µM (inactive)

----------
- Test system: HCT-116
- protocol-text: NCI tumour cell line growth inhibition, 48 h
Activity calls are given as the source filed them. Cut-off read from the data, not from the text of the source: active = GI50 up to about 1.1 µM and inactive = higher.
Please reply with one of these outcomes: active, inactive

{"columns": ["compound", "tested-on", "class-name"],
 "data": [
  ["Cc1c2ccccc2c(C2C3C(=O)N(c4cccc5ccccc45)C(=O)C3ON2Cc2ccc(CC(N)=O)cc2)c2ccccc12 (stereo not given)", "HCT-116", "inactive"],
  ["Cc1ccc(S(=O)(=O)Nc2cccc3c(=O)nc[nH]c23)cc1", "HCT-116", "inactive"],
  ["COc1ccc(-n2c(=O)c3nc[nH]c3n(-c3ccc(OC)cc3)c2=S)cc1", "HCT-116", "inactive"],
  ["CCOc1ccc(NCc2cc(OC)c(OC)c(OC)c2)cc1", "HCT-116", "active"],
  ["COc1ccc(C[C@]23CCC(=O)N2CCc2cc(OC)c(O)cc23)cc1O", "HCT-116", "inactive"]
]}

Qu. Hello, I am checking results. What call was entered for Cc1nnc(Sc2nc(C#N)c(C#N)nc2Sc2nnc(C)s2)s1 ?
Ans. inactive

Qu. Hello, I am checking results. What call was entered for O=C1N[C@H]2c3c(Cl)sc(Cl)c3C(=O)[C@H]2O1 ?
Ans. inactive

Qu. Hello, I am checking results. What call was entered for COc1cc2c(cc1OCCN1C(=O)c3cccc4cccc(c34)C1=O)N=C[C@@H]1CCCN1C2=O ?
Ans. inactive

Qu. Hello, I am checking results. What call was entered for CN(C)CCCOCCn1c2c(c3ccccc31)CCCC2 ?
Ans. inactive

Qu. Hello, I am checking results. What call was entered for CCCCCCCCCCCCCCCc1nnc(SCC(=O)O)[nH]1 ?
Ans. inactive

----------
Measured GI50 of individual entries
- Tested on: SW-620
- protocol-text: NCI tumour cell line growth inhibition, 48 h
Calls of active or inactive are those of the source. No stated cut-off is given here; in the data, active = GI50 up to about 1.1 µM and inactive = higher.

{"columns": ["compound", "GI50"],
 "data": [
  ["COc1ccc(Oc2nc3cc(C(F)(F)F)ccc3nc2C(C)C)cc1", "30.8 µM (inactive)"],
  ["CC1=C(C)C(=O)C2=C(OCCCO2)C1=O", "17 µM (inactive)"]
]}

Would you kindly look at the next entry?
GI50 recorded for this compound, Cc1nn(C(=O)c2ccncc2)c2c1C(c1ccc([N+](=O)[O-])cc1)SC(=N)N2 (stereo unspecified) , is > 100 µM (inactive)

----------
- Tested on: 786-0
- protocol-text: NCI tumour cell line growth inhibition, 48 h
Calls of active or inactive are those of the source. No stated cut-off is given here; in the data, active = GI50 up to about 1.1 µM and inactive = higher.
Please reply with one of these outcomes: active, inactive

Qu. Hello, I am checking results. What call was entered for CCCc1nnc2sc(COc3cc(Cl)c(OCc4nn5c(CCC)nnc5s4)cc3Cl)nn12 ?
Ans. inactive

Qu. Hello, I am checking results. What call was entered for N#Cc1c(Cl)c(C=O)c(=O)n2c1[nH]c1ccccc12 ?
Ans. inactive

Qu. Hello, I am checking results. What call was entered for COc1cccc(CCNc2c(C#N)c3nc4ccccc4n3c3ccccc23)c1 ?
Ans. active

Qu. Hello, I am checking results. What call was entered for O=[N+]([O-])c1ccc(Cl)cc1N/N=C/c1ccnc2ccccc12 ?
Ans. inactive

Qu. Hello, I am checking results. What call was entered for COC(=O)Cc1c([C@@]2(C)CCCC(C)(C)C2)ccc2c1C(=O)OC2 ?
Ans. inactive

Qu. Hello, I am checking results. What call was entered for Cc1cc(NS(=O)(=O)c2ccc(NC(NC(=O)OC(C)C)(C(F)(F)F)C(F)(F)F)cc2)nc(C)n1 ?
Ans. inactive

Qu. Hello, I am checking results. What call was entered for Nc1cccc(S(=O)(=O)NCC(=O)O)c1 ?
Ans. inactive

Qu. Hello, I am checking results. What call was entered for Cn1c(C(C)(C)OC(=O)Oc2ccccc2)cnc1[N+](=O)[O-] ?
Ans. inactive

Qu. Hello, I am checking results. What call was entered for COC(=O)C1OC(O[C@H]2CC[C@]3(C)[C@H]4CC=C5[C@@H]6CC(C)(C)CC[C@]6(C(=O)OC6OCC(O)C(O)C6OC6OC(C)C(OC7OCC(OC8OCC(O)C(O)C8O)C(O)C7O)C(O)C6O)[C@H](O)C[C@@]5(C)[C@]4(C)CC[C@H]3C2(C)C)C(O)C(O)C1O (stereo not given in full) ?
Ans. inactive

Qu. Hello, I am checking results. What call was entered for CC(=O)NS(=O)(=O)c1ccc(NCc2cccc3c(=O)c4ccc(Cl)cc4oc23)cc1 ?
Ans. inactive

Qu. Hello, I am checking results. What call was entered for Cc1csc(CP(=O)(OC(C)C)OC(C)C)n1 ?
Ans. inactive

Qu. Hello, I am checking results. What call was entered for O=C1N[C@H]2c3c(Cl)sc(Cl)c3C(=O)[C@H]2O1 ?
Ans. inactive

Qu. Hello, I am checking results. What call was entered for CC(=O)Nc1ccc(/N=C2\C(c3ccccc3)=C(SC3=C(c4ccccc4)/C(=N\c4ccc(NC(C)=O)cc4)c4ccccc43)c3ccccc32)cc1 ?
Ans. inactive

Qu. Hello, I am checking results. What call was entered for CCc1c(O)c2c(c(O)c1C(C)=O)C(=O)c1c(cc(O)c(C(=O)O)c1C(=O)O)C2=O ?
Ans. inactive

Qu. Hello, I am checking results. What call was entered for CC(=O)OCC1CCC(=C2C(=O)OC(C)(C)OC2=O)N1 (stereo not given) ?
Ans. inactive

Qu. Hello, I am checking results. What call was entered for CC[C@H](C)c1occ2c(O)c(C(=O)O)c(=O)cc-2c1C ?
Ans. inactive

Qu. Hello, I am checking results. What call was entered for COc1cc2c(cc1O)C=NCC2 ?
Ans. inactive

Qu. Hello, I am checking results. What call was entered for CN(C)/C(N)=N\C#N ?
Ans. inactive

Qu. Hello, I am checking results. What call was entered for COc1cccc(-c2cc(=O)c3ccc(C)nc3[nH]2)c1 ?
Ans. active

Qu. Hello, I am checking results. What call was entered for C[C@]12CCCC(=O)C1C[C@H](C(=O)O)CC2 (stereo not given in full) ?
Ans. inactive

----------
Measured GI50 of individual entries
- Test system: KM-20L2
- protocol-text: NCI tumour cell line growth inhibition, 48 h
Activity calls are given as the source filed them. Cut-off read from the data, not from the text of the source: active = GI50 up to about 1.1 µM and inactive = higher.

Solved entries (count: 6):
{"columns": ["compound", "experimental-endpoint", "result"],
 "data": [
  ["CN(C)/C(N)=N\\C#N", "GI50", "> 100 µM (inactive)"],
  ["CC1(C)C(=O)C(C)(C)C1=NN", "GI50", "> 100 µM (inactive)"],
  ["CCOc1ccc(/C=C(\\Cl)c2ccc(OC)cc2)cc1", "GI50", "> 100 µM (inactive)"],
  ["CC(C)[C@](O)(C(=O)OCC1=CCN2CC[C@@H](O)[C@@H]12)[C@H](C)O", "GI50", "> 375 µM (inactive)"],
  ["CCOCNC(=O)N(COCC)COCC", "GI50", "> 100 µM (inactive)"],
  ["COc1ccc(C2Cc3cc(OC)c(OC)c(OC)c3C2=O)cc1 (stereo unspecified)", "GI50", "> 100 µM (inactive)"]
]}

GI50 recorded for this compound, Cc1nc2ccccc2c(=O)n1Nc1ccc(C(=O)O)cc1 , is > 100 µM (inactive)

GI50 recorded for this compound, CCCCN(CC)C(=O)C(=O)C1C(=O)Nc2ccccc2[S+]1[O-] (stereo unspecified) , is > 100 µM (inactive)

GI50 recorded for this compound, Cc1ccc(NC(=O)CC/C(CC(=O)c2ccc(Cl)cc2)=N\NC(=O)C(=O)NN)cc1C , is > 100 µM (inactive)

GI50 recorded for this compound, c1ccc2c3c(ccc2c1)-c1[nH]ncc1CCO3 , is 34.5 µM (inactive)

GI50 recorded for this compound, O=[N+]([O-])c1ccc(OCCNc2cccc3ccccc23)cc1 , is > 100 µM (inactive)
